- Tested on: Vero E6 infected with SARS-CoV-2
- Assay details: inhibition of SARS-CoV-2 cytopathic effect; higher = more antiviral protection, active = above 15
- Assay setup: 100 nM; 48 h
Readout type: inhibition of SARS-CoV-2 cytopathic effect (%)
A number alone suffices; assume %.

Reference set (5 entries):
Query :: # get_value(readout='inhibition of SARS-CoV-2 cytopathic effect', item= CCC1(C)CC(=O)NC(=O)C1 [bemegride] )
Result :: -2.05

Query :: Entry CC(=O)SC[C@@H](C)C(=O)N1CCC[C@H]1C(=O)N[C@@H](Cc1ccccc1)C(=O)O [alacepril] please
Result :: 0.98

Query :: Entry COc1ccccc1N1CCN(CCCCNC(=O)c2ccc3ccccc3c2)CC1 please
Result :: 1.14

Query :: Entry COc1cc(Nc2ncc3c(n2)-c2ccc(Cl)cc2C(c2c(F)cccc2OC)=NC3)ccc1C(=O)O [alisertib] please
Result :: -2.08

Query :: Entry CCN(CCCOc1ccc2c(Nc3cc(CC(=O)Nc4cccc(F)c4)[nH]n3)ncnc2c1)CCOP(=O)(O)O [barasertib] please
Result :: -1.02

Next:
Query :: # get_value(readout='inhibition of SARS-CoV-2 cytopathic effect', item= COc1ccc(-n2nc(CCC(=O)N(C)O)cc2-c2ccc(Cl)cc2)cc1 [tepoxalin] )
Result :: 0.1

Query :: Entry CCCOc1ccc2c(c1)CC[C@@H]1[C@@H]2CC[C@]2(C)[C@@H](OC)CC[C@@H]12 [promestriene] please
Result :: -0.65

Query :: Entry O=S(=O)(/N=C/c1c(O)ccc2ccccc12)c1cccs1 please
Result :: 1.59

Query :: Entry O=C(O)c1ccc(CN2CCC(CN[C@@H]3C[C@H]3c3ccccc3)CC2)cc1 please
Result :: 1.24

Query :: Entry COc1ccc(-c2cc(C(F)F)nn2-c2ccc(S(N)(=O)=O)cc2)cc1F [deracoxib] please
Result :: 3.5

Query :: Entry CC1(C)S[C@@H]2[C@H](NC(=O)Cc3ccccc3)C(=O)N2[C@H]1C(=O)O [benzylpenicillin] please
Result :: -1.25

Query :: Entry CCCCN(Cc1ccc(C(=O)NO)cc1)C(=O)Nc1ccccc1 [nexturastat-A] please
Result :: -0.8

* * *

- System: Vero E6 infected with SARS-CoV-2
- Assay details: inhibition of SARS-CoV-2 cytopathic effect; higher = more antiviral protection, active = above 15
- Assay setup: 100 nM; 48 h
Readout type: inhibition of SARS-CoV-2 cytopathic effect (%)
A number alone suffices; assume %.

Query :: # get_value(readout='inhibition of SARS-CoV-2 cytopathic effect', item= CN1CCN(C2=Cc3ccccc3Oc3ccc(Cl)cc32)CC1 )
Result :: -0.45

Query :: Entry CCC[C@@H]1C[C@@H](C(=O)N[C@@H]([C@H]2O[C@H](SC)[C@H](OP(=O)(O)O)[C@@H](O)[C@H]2O)[C@H](C)Cl)N(C)C1 [Clindamycin phosphate] please
Result :: 2.16

Query :: Entry Cn1cnc2c(F)c(Nc3ccc(Br)cc3F)c(C(=O)NOCCO)cc21 [binimetinib] please
Result :: -9.91

Query :: Entry Cc1c(C)c2c(c(C)c1O)CCC(C)(COc1ccc(CC3SC(=O)NC3=O)cc1)O2 (configuration not stated) [troglitazone] please
Result :: 1.01

Next:
Query :: # get_value(readout='inhibition of SARS-CoV-2 cytopathic effect', item= COc1cc(C(C)=O)ccc1OCCCN1CCC(c2noc3cc(F)ccc23)CC1 [iloperidone] )
Result :: 0.99

Query :: Entry CN(C)c1cccc(Oc2cnc(Nc3cccc(O)c3)nc2)c1 please
Result :: -1.76

Query :: Entry CN(C)c1nc(N)c(C(=O)Nc2cccnc2)nc1Cl please
Result :: -0.62

Query :: Entry CC(C)[C@H](CO)Nc1nc(Nc2cc(N)cc(Cl)c2)c2ncn(C(C)C)c2n1 [aminopurvalanol-a] please
Result :: -1.34

Query :: Entry CC(=O)c1ccc2c(c1)N(CCCN1CCN(CCO)CC1)c1ccccc1S2 [acetophenazine] please
Result :: 2.3

Query :: Entry O=C(OCC(O)CO)c1ccccc1Nc1ccnc2cc(Cl)ccc12 (configuration not stated) [glafenine] please
Result :: 2.29

Query :: Entry Cc1nc2c([nH]1)-c1ccccc1N(C(=O)c1ccc(NC(=O)c3ccccc3-c3ccccc3)cc1)CC2 [conivaptan] please
Result :: 0.14

Query :: Entry CN1CCN(CCc2ccc(Cl)c(Cl)c2)CC1 please
Result :: -0.38
